// provenance: ChEMBL document CHEMBL1201862

# Test system: SF-268
# Method Description: NCI tumour cell line growth inhibition, 48 h
Activity calls are given as the source filed them. Cut-off read from the data, not from the text of the source: active = GI50 up to about 1.1 µM and inactive = higher.
Quantity Kind: GI50

CCC(=O)N/S(=N/S(=O)(=O)c1ccccc1)C(Cl)(Cl)Cl (centres undefined): > 100 µM (inactive)
CCOC1NC(=O)Oc2cc3ccccc3cc21 (centres undefined): > 100 µM (inactive)
Cc1ccc(NC(=S)NNC(=O)c2cc(-c3ccccc3)nc3ccccc23)cc1C: 29.4 µM (inactive)
CS/C(=N\C(=S)Nc1ccccc1)Nc1ccccc1: 25.6 µM (inactive)
N#C[C@H](C(=O)c1ccccc1F)c1nc2ccccc2[nH]1: > 100 µM (inactive)

Prompt line: Report the value of GI50 obtained on SF-268 for COc1cc(C2C(=O)C(Cl)N2Nc2nc(C)cc(O)n2)cc(OC)c1OC (centres undefined) .
Response line: 7.01 µM (inactive)

Prompt line: Report the value of GI50 obtained on SF-268 for N#CCC(=O)NC1C2CC3CC(C2)CC1C3 (centres undefined) .
Response line: 17.7 µM (inactive)

Prompt line: Report the value of GI50 obtained on SF-268 for CCCCCCOP(=O)(OCCCCCC)OC(C(=O)OC)C(F)(F)F (centres undefined) .
Response line: > 100 µM (inactive)

Prompt line: Report the value of GI50 obtained on SF-268 for O=C(Cn1c(-c2ccccc2)cc2ccccc21)N1CCCC1 .
Response line: > 100 µM (inactive)

Prompt line: Report the value of GI50 obtained on SF-268 for CC1=NN=C(NCCN(C)C)C/C1=C/c1ccccc1Cl .
Response line: > 100 µM (inactive)

Prompt line: Report the value of GI50 obtained on SF-268 for COc1ccc(-c2c(N)n(-c3nc4ccccc4s3)c(=O)c3cc([N+](=O)[O-])ccc23)cc1 .
Response line: 17.2 µM (inactive)

Prompt line: Report the value of GI50 obtained on SF-268 for C=C(C)[C@@H]1CC[C@]2(C(=O)O)CC[C@]3(C)[C@H](CCC4[C@@]5(C)CC[C@H](C(=O)/C=C/c6ccc(O)c(O)c6)C(C)(C)[C@@H]5CC[C@]43C)[C@@H]12 (some centres undefined) .
Response line: 5.28 µM (inactive)

Prompt line: Report the value of GI50 obtained on SF-268 for COc1ccc(C(=O)/C=C/c2ccc(OCCCOc3ccc(/C=C/C(=O)c4ccc(OC)c(OC)c4)cc3)cc2)cc1OC .
Response line: > 100 µM (inactive)

Prompt line: Report the value of GI50 obtained on SF-268 for CC(=C(C(=O)O)C(=O)O)c1cc(-c2cccs2)cc(-c2ccc(Cl)cc2)c1O .
Response line: 17.9 µM (inactive)

Prompt line: Report the value of GI50 obtained on SF-268 for Nc1cc2c(nc3c4ccccc4c(N)cc3[n+]2-c2cccc3ccccc23)c2ccccc12.Nc1cc2c(nc3c4ccccc4ccc3[n+]2-c2cccc3ccccc23)c2ccccc12 .
Response line: 3.37 µM (inactive)

Prompt line: Report the value of GI50 obtained on SF-268 for Cc1n[nH]c(=O)n1/N=C/c1ccc(F)cc1 .
Response line: > 100 µM (inactive)

Prompt line: Report the value of GI50 obtained on SF-268 for O=C(NC12CC3CC(CC(C3)C1)C2)C(=O)c1c[nH]c2ccc(Cl)cc12 .
Response line: 49 µM (inactive)

Prompt line: Report the value of GI50 obtained on SF-268 for c1ccc2c(c1)-c1nc3ccccc3cc1C2N1CCOCC1 (centres undefined) .
Response line: 61.2 µM (inactive)

Prompt line: Report the value of GI50 obtained on SF-268 for CC(=O)OC1=CC(n2cc(F)c(=O)[nH]c2=O)OC(C)C1=O (centres undefined) .
Response line: 81.5 µM (inactive)

Prompt line: Report the value of GI50 obtained on SF-268 for N#Cc1c(CC(=O)O)cc(=O)n2c1[nH]c1ccccc12 .
Response line: > 100 µM (inactive)
